test: Evaluation of bioavailability (BA), rat PK after intravenous and oral administration; format: in vivo, SD rats; conditions: male, SD, plasma, 10 mg/kg, read-out: Bioavailability F (%)
Measurement label: bioavailability (%)

1) O=C(NCc1ccc(C(F)(F)F)nc1N1CCCCC1)Nc1cccc2[nH]c(=O)[nH]c12 [Comparative Example 3, reference compound]; 3

(a) O=C(/C=C/c1ccc(C(F)(F)F)nc1N1CCCC1)Nc1cccc2[nH]c(=O)[nH]c12
(b) O=C(NCc1ccc(C(F)(F)F)nc1N1CCCC1)Nc1cccc2[nH]c(=O)[nH]c12 [Comparative Example 1, reference compound]
(c) CC(C)COc1nc(C(F)(F)F)ccc1/C=C/C(=O)Nc1cccc2[nH]c(=O)[nH]c12
Write the entries in order, lowest recorded bioavailability first. Would you mind listing the labels in the order requested?
b, a, c
(b: 2.3%, a: 13.2%, c: 25.9%)

###

molecular target: human TRPV1 (hTRPV1) (Homo sapiens); construct: host or cells: HEK (PrecisION hTRPV1-HEK recombinant cell line); assay: Evaluation of human pH inhibitory activity in hTRPV1-HEK recombinant cells; format: cell-based; details: inhibition of activation at final pH 6.0, test substance 3 μM
Sequence (Q8NER1 whole entry): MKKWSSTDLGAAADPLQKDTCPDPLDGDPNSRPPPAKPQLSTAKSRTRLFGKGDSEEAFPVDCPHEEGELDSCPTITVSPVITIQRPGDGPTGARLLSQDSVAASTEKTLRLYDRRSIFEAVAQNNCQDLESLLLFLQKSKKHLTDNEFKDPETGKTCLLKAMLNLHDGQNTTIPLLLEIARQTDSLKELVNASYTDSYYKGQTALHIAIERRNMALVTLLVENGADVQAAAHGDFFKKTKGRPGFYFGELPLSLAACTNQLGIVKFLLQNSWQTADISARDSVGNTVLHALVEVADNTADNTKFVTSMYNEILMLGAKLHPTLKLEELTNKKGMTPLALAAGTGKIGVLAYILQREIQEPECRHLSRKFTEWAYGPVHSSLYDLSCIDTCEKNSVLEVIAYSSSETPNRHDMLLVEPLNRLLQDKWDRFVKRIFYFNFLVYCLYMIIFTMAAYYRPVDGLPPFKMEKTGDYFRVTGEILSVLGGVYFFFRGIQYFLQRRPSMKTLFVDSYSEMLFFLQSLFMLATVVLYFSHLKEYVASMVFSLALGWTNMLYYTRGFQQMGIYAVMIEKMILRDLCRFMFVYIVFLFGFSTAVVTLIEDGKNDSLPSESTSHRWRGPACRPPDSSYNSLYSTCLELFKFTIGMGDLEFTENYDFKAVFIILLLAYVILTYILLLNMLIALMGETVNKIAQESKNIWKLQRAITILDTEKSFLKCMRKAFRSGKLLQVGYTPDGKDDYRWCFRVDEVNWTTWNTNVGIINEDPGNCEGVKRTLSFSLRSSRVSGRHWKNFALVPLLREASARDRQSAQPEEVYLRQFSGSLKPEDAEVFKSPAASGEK
Measurement label: hTRPV1 pH (%, 3 μM) (%)

Below are worked cases with known answers.
1) O=C(/C=C/c1ccc(C(F)(F)F)nc1OC1CCC1)Nc1cccc2[nH]c(=O)[nH]c12 [Example 11]; 88.23
2) CC(C)COc1nc(C(F)(F)F)ccc1/C=C/C(=O)Nc1cccc2[nH]c(=O)[nH]c12 [Example 10]; 53.26
3) O=C(/C=C/c1ccc(C(F)(F)F)nc1OCC1CC1)Nc1cccc2[nH]c(=O)[nH]c12 [Example 13]; 30.67
4) CC(C)c1cccc(-c2nc(C(F)(F)F)ccc2/C=C/C(=O)Nc2cccc3[nH]c(=O)[nH]c23)c1 [Example 32]; 67.88

(A) O=C(/C=C/c1ccc(C(F)(F)Cl)nc1OCC1CC1)Nc1cccc2[nH]c(=O)[nH]c12 [Example 17]
(B) O=C(/C=C/c1ccc(C(F)(F)F)nc1-c1cccc(F)c1)Nc1cccc2[nH]c(=O)[nH]c12 [Example 30]
Lab log: flag the item ( A or B ) with the smaller hTRPV1 pH (%, 3 μM) figure. To answer, give the label that identifies your chosen option.
B

###

target: human TRPV1 (hTRPV1) (Homo sapiens); construct: host or cells: HEK (PrecisION hTRPV1-HEK recombinant cell line); experiment: Evaluation of human pH inhibitory activity in hTRPV1-HEK recombinant cells; type: cell-based; conditions: inhibition of activation at final pH 6.0, test substance 3 μM
Measurement label: hTRPV1 pH (%, 3 μM) (%)

Below are worked cases with known answers.
1) CC(C)COc1cc(C(F)(F)F)ccc1/C=C/C(=O)Nc1cccc2[nH]c(=O)[nH]c12; 78.89
2) O=C(/C=C/c1ccc(C(F)(F)F)nc1OC1CCCC1)Nc1cccc2[nH]c(=O)[nH]c12; 81.25

(1) CC(C)c1cccc(-n2nc(C(F)(F)F)cc2/C=C/C(=O)Nc2cccc3[nH]c(=O)[nH]c23)c1
(2) O=C(/C=C/c1ccc(C(F)(F)F)nc1N1CCCCC1)Nc1cccc2[nH]c(=O)[nH]c12
Lab log: flag the item ( 1 or 2 ) with the smaller hTRPV1 pH (%, 3 μM) figure. To answer, give the label that identifies your chosen option.
1
